The origin of these recorded values is PubChem BioAssay.

Biological target: Follistatin (Homo sapiens)
Test: follistatin binders on small-molecule microarrays, primary screen, biochemical, small-molecule microarray, 635/667 nm fluorescence (AID 1132)
Conditions: FST binding, 635 nm fluorescence, higher = more signal
OBSERVATION TYPE: composite z-score
Answers are plain numbers.

- SUBSTANCE SMILES: "C=C(COC)C(=O)CC[C@H](OC(C)=O)c1ccc(CO)o1"
  composite z-score: 1.37
- SUBSTANCE SMILES: "COc1ccc([Si](C)(C)[C@H]2[C@H](CC(=O)N3CCC[C@H]3CO)O[C@@]3(C(=O)N(C)c4c(Br)cc(C)cc43)[C@@H]2C)cc1"
  composite z-score: 1.59
- SUBSTANCE SMILES: "CCCC=C(CCC)[C@@H](NC(=O)c1ccc(C(=O)OC)cc1)c1ccc(C(=O)OC)cc1"
  composite z-score: 0.0388

The record that follows has no composite z-score shown yet.
What value of composite z-score has been recorded for this entry: COCCCNC(=O)[C@]1(Cc2ccccc2N=[N+]=[N-])N=C(c2ccc(OCCCO)cc2)O[C@@H]1c1ccccc1
1.25

----------
Assay: E. coli growth modulation, two-sided OD650, primary screen, E. coli filamentation project, strain DRC41, 24 h (AID 1093);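 note: MC1000 strain lacking acrAB efflux and sulA so SOS filamentation is blocked; test concentration not given here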
Details: OD650, 24 h, higher = more signal, called active from +8 up or from −8 down
Calls of active or inactive are those of the source.
OBSERVATION TYPE: z-score

// known answers, use as guide
- MOLECULE: "OCCCc1cc[n+](Cc2cc3c(cc2Br)OCO3)cc1"
  RESULT: "0.0566 (inactive)"
- MOLECULE: "CC(C)N1C(=O)[C@@]2(Cc3ccccc31)c1ccccc1C(=O)N(Cc1ccccc1)[C@H]2c1ccc(CO)cc1"
  RESULT: "0.365 (inactive)"
- MOLECULE: "COCCCNC(=O)[C@@]1(c2ccc([N+](=O)[O-])cc2)CC(=O)N(C2CCCCC2)[C@@H]1c1ccc(CO)cc1I"
  RESULT: "0.556 (inactive)"
- MOLECULE: "COC(=O)C(CC#Cc1ccc2c(c1)[C@]1(C(=O)N2)[C@H](C(=O)NC[C@H](O)c2ccccc2)[C@H]2C(=O)O[C@H](c3ccccc3)[C@H](c3ccccc3)N2[C@@H]1c1ccc(O)cc1)C(=O)OC"
  RESULT: "-1.02 (inactive)"
- MOLECULE: "CC[C@@H](O[Si](C#C[Si](C(C)C)(C(C)C)C(C)C)(C(C)C)C(C)C)c1cn([C@H](C)c2ccccc2)nn1"
  RESULT: "0.612 (inactive)"
- MOLECULE: "CC(C)C(=C=CC[C@H](O)c1cccc(OCCO)c1)C[C@H](O)c1ccccn1"
  RESULT: "0.879 (inactive)"

The record that follows has no z-score shown yet.
What value of z-score has been recorded for this entry: CC1CC/C=C\[C@H]2OC34C=CCN(C(C)C)C(=O)[C@H]3N(C(C)CO)C(=O)[C@@H]4C2C(=O)O1 (some centres not stated)
1.62 (inactive)

----------
Target: Fibroblast growth factor 2 (Homo sapiens) (UniProt P09038)
Sequence (P09038 whole entry, looked up): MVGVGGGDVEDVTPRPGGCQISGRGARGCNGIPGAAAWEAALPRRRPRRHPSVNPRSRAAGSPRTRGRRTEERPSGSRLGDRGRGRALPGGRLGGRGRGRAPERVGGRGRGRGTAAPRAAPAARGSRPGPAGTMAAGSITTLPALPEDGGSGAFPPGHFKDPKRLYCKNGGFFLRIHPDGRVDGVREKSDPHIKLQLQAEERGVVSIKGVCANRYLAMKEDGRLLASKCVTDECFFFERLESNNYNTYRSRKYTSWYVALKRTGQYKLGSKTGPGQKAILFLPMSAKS
Experiment: FGF2 binders on small-molecule microarrays, primary screen, biochemical, small-molecule microarray, 635/667 nm fluorescence (AID 1133)
Details: small-molecule microarray binding, FGF2, fluorescence 635/667; higher = more signal
1 means recorded composite z-score is 0.1 or above; -1 means it is below 0.1.

Use these answered entries as a reference point.
- SUBSTANCE SMILES: "COC(=O)[C@H]1N=C(c2ccc(OCCCO)cc2)O[C@H]1c1ccccc1N=[N+]=[N-]"
  CLASSIFICATION: -1
- SUBSTANCE SMILES: "COc1ccc(C(=O)Nc2cccc(CN3C(=O)[C@]4(O[C@H](CC(=O)N(CCO)Cc5ccccc5)[C@@H]([Si](C)(C)c5ccc(OC)cc5)[C@@H]4C)c4ccccc43)c2)cc1"
  CLASSIFICATION: 1
- SUBSTANCE SMILES: "C=C(COC)C(=O)CC[C@H](OC(C)=O)c1ccc(CO)o1"
  CLASSIFICATION: 1
- SUBSTANCE SMILES: "COc1ccc([Si](C)(C)[C@H]2[C@H](CC(=O)N3CCC[C@H]3CO)O[C@@]3(C(=O)N(Cc4cccc(N5CCCCC5=O)c4)c4ccccc43)[C@@H]2C)cc1"
  CLASSIFICATION: 1
- SUBSTANCE SMILES: "C=C[C@H](C)[C@@H](OC(=O)Nc1ccc(SC)cc1)c1ccc(OCCO)cc1"
  CLASSIFICATION: 1

# next compound below
Is reported composite z-score greater than or equal to 0.1 here: COC(=O)C(CC#Cc1ccc2c(c1)[C@]1(C(=O)N2)[C@H](c2ccc(OCCO)cc2)N2[C@H](c3ccccc3)[C@H](c3ccccc3)OC(=O)[C@H]2[C@@H]1C(N)=O)C(=O)OC
-1
